- Assay Target: UniProtKB E9AFX2
- Assay Overview: biochemical
- Format: biochemical
- Condition Info: read-out: 20mM inhibition LmjIPCS
Observation Type: inhibition at 20000 µM
Quote the value and follow it with the unit of measurement.

Reference set (4 entries):
Compound	inhibition at 20000 µM
O=C(O)c1cn(C2CC2)c2cc(N3CCNCC3)c(F)cc2c1=O	3%
NCCCCNCCCN	12%
c1ccc2c(c1)CCCC2C1=NCCN1 (centres unmarked) [TETRAHYDROZOLINE]	8%
CN1[C@@H]2CC[C@H]1C[C@@H](OC(=O)[C@H](CO)c1ccccc1)C2	4%

Prompt: Give UniProtKB E9AFX2 inhibition at 20000 µM for "O=c1c(O)c(-c2ccc(O)cc2O)oc2cc(O)cc(O)c12"
Completion: 4%

---

- Assay Target: LmjIPCS (inositol phosphorylceramide synthase from L. major) (Leishmania major)
- Sequence (E9AFX2 1-338): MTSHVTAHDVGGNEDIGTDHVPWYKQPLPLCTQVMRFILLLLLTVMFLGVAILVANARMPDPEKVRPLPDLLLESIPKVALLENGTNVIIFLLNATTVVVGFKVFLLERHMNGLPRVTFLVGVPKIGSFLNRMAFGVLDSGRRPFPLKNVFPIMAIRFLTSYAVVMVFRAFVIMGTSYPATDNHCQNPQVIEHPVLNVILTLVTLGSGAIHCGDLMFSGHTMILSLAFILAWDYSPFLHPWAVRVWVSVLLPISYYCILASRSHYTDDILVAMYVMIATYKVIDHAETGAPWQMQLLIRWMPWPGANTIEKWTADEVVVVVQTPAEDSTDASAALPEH
- Assay Overview: biochemical
- Format: biochemical
Label rule, in plain words: 20mM inhibition LmjIPCS of 40% and up is fulfilled, under 40% is not fulfilled.

Look over these answered cases.
Compound	Qualitative Label
NC(=O)c1cc([N+](=O)[O-])cc([N+](=O)[O-])c1 [NITROMIDE]	not fulfilled
CN1CCC(OC(c2ccccc2)c2ccccc2)CC1	fulfilled
CCCCC(=O)O[C@H]1CC[C@H]2[C@@H]3CCc4cc(O)ccc4[C@H]3CC[C@]12C [ESTRADIOL VALERATE]	fulfilled
CC(Cc1cccc(C(F)(F)F)c1)NCCOC(=O)c1ccccc1 (stereo not shown)	fulfilled
Nc1ccncc1	not fulfilled
CCCCCCc1ccc(O)cc1O.Nc1c2ccccc2nc2ccccc12	not fulfilled
Cc1nnc(SCC2=C(C(=O)O)N3C(=O)[C@@H](NC(=O)Cn4cnnn4)[C@H]3SC2)s1	not fulfilled
Nc1c(Br)cc(Br)cc1CN[C@H]1CC[C@H](O)CC1	fulfilled
CC(C)COCC(CN(Cc1ccccc1)c1ccccc1)N1CCCC1 (stereo not shown)	fulfilled
NCC(O)CC(=O)O (stereo not shown) [AMINOHYDROXYBUTYRIC ACID]	not fulfilled

Prompt: Hi, just wondering whether Cc1nnc(NS(=O)(=O)c2ccc(N)cc2)s1 [sulfamethizole 14, sulfamethizole, reference compound] shows 20mM inhibition LmjIPCS of 40% or higher.
Completion: fulfilled

Prompt: Please answer likewise for "COC(=O)[C@H]1[C@H]2C[C@H]3c4[nH]c5cc(OC)ccc5c4CCN3C[C@H]2C[C@@H](OC(=O)c2cc(OC)c(OC)c(OC)c2)[C@@H]1OC"
Completion: fulfilled

Prompt: Please answer likewise for "CN1CCN(C2=Nc3ccccc3Oc3ccc(Cl)cc32)CC1"
Completion: fulfilled

Prompt: Please answer likewise for "Cc1cc(O)cc(C)c1Cl"
Completion: fulfilled

Prompt: Please answer likewise for "O=c1cc(-c2ccc(O)cc2)oc2cc(O)cc(O)c12"
Completion: fulfilled

Prompt: Please answer likewise for "Oc1c(Cl)cc(Cl)c2cccnc12"
Completion: not fulfilled

---

- Tested on: L. major (FV1) promastigotes
- Assay Overview: Antipromastigote resazurin assay, L. major (FV1) wild type
- Assay type: cell-based, Leishmania major
With a cut-off of 5 mM, any ED50 vs L. major strictly below it is called t; any ED50 vs L. major meeting it or above is called f.

Look over these answered cases.
Molecule	Qualitative Label
Fc1ccc(C(c2ccc(F)cc2)N2CCN(C/C=C/c3ccccc3)CC2)cc1 [flunarizine 7, flunarizine, reference compound]	t
CN1CCN(CCCN2c3ccccc3Sc3ccc(Cl)cc32)CC1 [prochlorperazine edisylate 11, prochlorperazine edisylate, reference compound]	f
N=C(N)c1ccc(OCCCCCOc2ccc(C(=N)N)cc2)cc1 [pentamidine 9, pentamidine, reference compound]	t
CN[C@H]1CC[C@@H](c2ccc(Cl)c(Cl)c2)c2ccccc21 [sertraline 13, sertraline, reference compound]	f
CN(C)CCC=C1c2ccccc2COc2ccccc21 [doxepin 5, doxepin, reference compound]	f

Prompt: Would you kindly verify if ED50 vs L. major of CCN(CC)CCOc1ccc(C(=C(Cl)c2ccccc2)c2ccccc2)cc1 [clomiphene 4, clomiphene, reference compound] is strictly less than 5 mM?
Completion: f

---

Each record here notes measured inhibition at 20000 µM.
- Assay Target: LmjIPCS (inositol phosphorylceramide synthase from L. major) (Leishmania major)
- Assay Overview: biochemical
- Format: biochemical
- Condition Info: read-out: 20mM inhibition LmjIPCS
Your answer is read as %, so omit the unit and give the number.

Reference set (5 entries):
Molecule	Assay Target	inhibition at 20000 µM, %
CC(=O)Nc1ccccc1 [ACETANILIDE]	LmjIPCS (inositol phosphorylceramide synthase from L. major) (Leishmania major)	3.75
C=CC1=C(C(=O)O)N2C(=O)[C@@H](NC(=O)/C(=N\O)c3csc(N)n3)[C@H]2SC1	LmjIPCS (inositol phosphorylceramide synthase from L. major) (Leishmania major)	9
CC(C)NCC(O)c1cc(O)cc(O)c1 (stereo not shown)	LmjIPCS (inositol phosphorylceramide synthase from L. major) (Leishmania major)	7
CC[C@@H](C(=O)O)[C@@H]1O[C@@H]([C@@H](C)[C@H](O)[C@H](C)C(=O)[C@H](CC)[C@H]2O[C@]3(C=C[C@@H](O)[C@]4(CC[C@@](C)([C@H]5CC[C@](O)(CC)[C@H](C)O5)O4)O3)[C@H](C)C[C@@H]2C)[C@@H](C)C[C@@H]1C	LmjIPCS (inositol phosphorylceramide synthase from L. major) (Leishmania major)	-0.161
CN[C@@H]1[C@@H](O)[C@@H](O[C@@H]2[C@@H](O)[C@H](O[C@H]3OC(CN)=CC[C@H]3N)[C@@H](N)C[C@H]2N)OC[C@]1(C)O	LmjIPCS (inositol phosphorylceramide synthase from L. major) (Leishmania major)	19

Prompt: Entry under review: CC1CCc2cc(F)cc3c(=O)c(C(=O)O)cn1c23 (stereo not shown) . Reported inhibition at 20000 µM?
Completion: 5

Prompt: Please answer likewise for CC(=O)O[C@]1(C(C)=O)CC[C@H]2[C@@H]3C=C(C)C4=CC(=O)CC[C@]4(C)[C@H]3CC[C@@]21C [MEGESTROL ACETATE]
Completion: 15

---

- Assay Target: LmjIPCS (inositol phosphorylceramide synthase from L. major) (Leishmania major)
- Assay Overview: biochemical
- Type: biochemical
- Condition Info: read-out: 20mM inhibition LmjIPCS
Where a SMILES comes first, the peptide text is derived from it.
Observation Type: inhibition at 20000 µM (%)
Your answer is read as %, so omit the unit and give the number.

Reference set (5 entries):
Compound	inhibition at 20000 µM (%)
Cn1c(=O)c2[nH]c(C3CCCC3)nc2n(C)c1=O [8-CYCLOPENTYLTHEOPHYLLINE]	4.71
CC1(C)O[C@@H]2C[C@H]3[C@@H]4C[C@H](F)C5=CC(=O)C=C[C@]5(C)[C@H]4[C@@H](O)C[C@]3(C)[C@]2(C(=O)CO)O1 [FLUNISOLIDE]	-10
c1ccc2c(c1)[nH]c1cnccc12 [NORHARMAN]	17
CC(=O)OCC(=O)[C@H]1CC[C@H]2[C@@H]3CCC4=CC(=O)CC[C@]4(C)[C@H]3CC[C@]12C [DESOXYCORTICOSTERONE ACETATE]	17
[N-]=[N+]=CC(=O)OC[C@H](N)C(=O)O [AZASERINE]	14

Prompt: Entry under review: C[C@]12CCC(=O)C(O)=C1CC[C@@H]1[C@@H]2CC[C@]2(C)C(=O)CC[C@@H]12 [FORMESTANE] . Reported inhibition at 20000 µM?
Completion: 18

Prompt: Please answer likewise for Oc1ccc(O)cc1 [HYDROQUINONE]
Completion: -2.33

Prompt: Please answer likewise for N[C@H](CO)Cc1ccccc1 [L-PHENYLALANINOL]
Completion: 24

Prompt: Please answer likewise for CC(C)(Sc1cc(C(C)(C)C)c(O)c(C(C)(C)C)c1)Sc1cc(C(C)(C)C)c(O)c(C(C)(C)C)c1 [PROBUCOL]
Completion: 25

Prompt: Please answer likewise for "CCN(CC)C(=S)SSC(=S)N(CC)CC"
Completion: 16

Prompt: Please answer likewise for NC(N)=Nc1nc(CSCCC(N)=NS(N)(=O)=O)cs1 [FAMOTIDINE]
Completion: 14

Prompt: Please answer likewise for C=C1[C@@H]2CC[C@H]3[C@]4(C)C[C@H](O[C@@H]5O[C@H](CO)[C@@H](OS(=O)(=O)O)[C@H](OS(=O)(=O)O)[C@H]5OC(=O)CC(C)C)C[C@@H](C(=O)O)[C@H]4CC[C@]3(C2)[C@H]1O [ATRACTYLOSIDE]
Completion: 18

Prompt: Please answer likewise for NC(=O)N/N=C/c1ccc([N+](=O)[O-])o1 [NITROFURAZONE]
Completion: 14

Prompt: Please answer likewise for CC[C@@]1([C@@H]2O[C@@H]([C@H]3O[C@@](O)(CO)[C@H](C)C[C@@H]3C)C[C@@H]2C)CC[C@H]([C@]2(C)CC[C@]3(C[C@H](O)[C@@H](C)[C@@H]([C@@H](C)[C@@H](OC)[C@H](C)C(=O)O)O3)O2)O1 [MONENSIN]
Completion: 0.265

Prompt: Please answer likewise for Cc1ccc(Cl)c(Nc2ccccc2C(=O)O)c1Cl [MECLOFENAMATE]
Completion: 6

Prompt: Please answer likewise for NCCCC[C@H](N)C(=O)N[C@@H](Cc1ccccc1)C(=O)N[C@@H](Cc1ccc(O)cc1)C(=O)O [LYSYLPHENYLALANYLTYROSINE] (H-Lys-Phe-Tyr-OH)
Completion: 4.61

Prompt: Please answer likewise for CC(=O)OCC(=O)[C@@]1(O)CC[C@H]2[C@@H]3CCC4=CC(=O)CC[C@]4(C)[C@H]3[C@@H](O)C[C@@]21C [HYDROCORTISONE ACETATE]
Completion: 7

Prompt: Please answer likewise for O=C(O)c1cc(-c2ccc(F)cc2F)ccc1O [DIFLUNISAL]
Completion: -4.4

Prompt: Please answer likewise for CCCN(CCC)C(=O)C(CCC(=O)O)NC(=O)c1ccccc1 (stereo not shown) [PROGLUMIDE]
Completion: 15

Prompt: Please answer likewise for CCCC(=O)Nc1ncnc2c1ncn2[C@@H]1O[C@@H]2COP(=O)(O)O[C@H]2[C@H]1OC(=O)CCC [BUCLADESINE]
Completion: -1.88

Prompt: Please answer likewise for N[C@H]1C(O)O[C@H](CO)[C@@H](O)[C@@H]1O (stereo partly shown) [GLUCOSAMINE]
Completion: 10

Prompt: Please answer likewise for CO[C@H]1/C=C/O[C@@]2(C)Oc3c(C)c(O)c4c(O)c(c5c(nc6cc(C)ccn65)c4c3C2=O)NC(=O)/C(C)=C\C=C\[C@H](C)[C@H](O)[C@@H](C)[C@@H](O)[C@@H](C)[C@H](OC(C)=O)[C@@H]1C [RIFAXIMIN]
Completion: 6

Prompt: Please answer likewise for COc1ccc2c(c1OC)C(=O)OC2[C@H]1c2cc3c(cc2CCN1C)OCO3 (stereo in doubt) [1R,9S-HYDRASTINE]
Completion: 10
